System: MELK
Conditions: concentration: 1 μM, replicates: in singlicate; n = 1
readout: %Inh
Field: value (include unit after the number)

Recorded results for 6 molecules are shown here.
{"molecule": "Nc1nccc2scc(-c3ccc4c(c3)CCN4C(=O)Cc3ccccc3)c12 [GSK2576924]", "%Inh": "16%"}
{"molecule": "CCc1nc(-c2cccc(C)c2)c(-c2ccncc2)s1", "%Inh": "0%"}
{"molecule": "COc1ccc(-c2cc3c(C)nc(N)nc3n([C@H]3CC[C@H](O)CC3)c2=O)cn1", "%Inh": "3%"}
{"molecule": "CCS(=O)c1ccc(-c2coc3ccc(-c4nnc(C)o4)cc23)cc1 (stereo not shown)", "%Inh": "0%"}
{"molecule": "CCC(=O)c1c(-c2ccccc2)c2cc(Cl)ccc2c(=O)n1Cc1ccc(C(=O)O)cc1", "%Inh": "0%"}
{"molecule": "Cc1nnc(-c2ccc3ncn(-c4ccc(S(C)=O)cc4)c3c2)o1 (stereo not shown)", "%Inh": "13%"}

Req: Request: %Inh, test system MELK, entry CCCC(=O)Nc1n[nH]c2ncc(-c3cccc4ccccc34)cc12 [SB-642057]
Resp: 33%

Req: Now the same for Cl.c1ccc(Cn2cnc3cc(Nc4ncnc5ccccc45)ccc32)cc1 [GW272142]
Resp: 13%

Req: Now the same for O=C(Nc1n[nH]c2cc(-c3ccccc3F)ccc12)C1CC1 [SB-733371]
Resp: 0%

Req: Now the same for Nc1ncnc2c1ncn2-c1cccc2ccccc12 [SKF-97184]
Resp: 0%

----------
System: PRKCH
Conditions: concentration: 1 μM, replicates: in singlicate; n = 1
readout: %Inh

Recorded results for 5 molecules are shown here.
{"molecule": "CCC(=O)c1c(-c2ccccc2)c2cc(Cl)ccc2c(=O)n1Cc1ccc(C(=O)O)cc1", "assayed.target": "PRKCH", "recorded.result": "0%"}
{"molecule": "Cc1cccc(-c2cc(-c3c[nH]nc3-c3ccccn3)ccn2)c1", "assayed.target": "PRKCH", "recorded.result": "0%"}
{"molecule": "Cc1cccc(-c2nc(Nc3ccc4c(cnn4C)c3)c3ccccc3n2)n1", "assayed.target": "PRKCH", "recorded.result": "0%"}
{"molecule": "Cl.NS(=O)(=O)c1cccc(Nc2cc(-c3ccc(F)cc3)n[nH]2)c1", "assayed.target": "PRKCH", "recorded.result": "0%"}
{"molecule": "CN1C(=O)C(Nc2cc(Cl)c(O)c(Cl)c2)=C(c2ccc(Cl)cc2)C1=O", "assayed.target": "PRKCH", "recorded.result": "0%"}

// moving on: another record for %Inh
Req: // query %Inh value for entry Cl.c1ccc(Cn2cnc3cc(Nc4ncnc5ccccc45)ccc32)cc1
Resp: 0%

----------
Listed below: %Inh values for each entry.
System: WNK2
Details: concentration: 1 μM, replicates: in singlicate; n = 1
Give the number; % is assumed, so skip it.

Recorded results for 5 compounds are shown here.
{"compound.string": "COc1cc2ncn(-c3cc(OCc4ccncc4)c(C(N)=O)s3)c2cc1OC", "endpoint.unit": "%", "%Inh": 0}
{"compound.string": "Cn1c(=O)c(F)c(Nc2ccc(I)cc2F)c2c(=O)n(OC[C@H](O)CO)cnc21", "endpoint.unit": "%", "%Inh": 0}
{"compound.string": "Cc1nnc(-c2ccc(C)c(-c3ccc(C(=O)O)cc3)c2)o1", "endpoint.unit": "%", "%Inh": 0}
{"compound.string": "Fc1cccc(CSc2nnc(-c3ccc4c(c3)CCO4)o2)c1", "endpoint.unit": "%", "%Inh": 14}
{"compound.string": "CCn1c(-c2ccoc2)nc2cnccc21", "endpoint.unit": "%", "%Inh": 18}

Req: // query %Inh value for entry COc1cc2ncn(-c3cc(OCc4ccncc4Br)c(C(N)=O)s3)c2cc1OC
Resp: 35

----------
Listed below: %Inh values for each entry.
Test system: DMPK
Details: concentration: 1 μM, replicates: in singlicate; n = 1
Give the number; % is assumed, so skip it.

{"molecule": "Cc1nnc(-c2ccc(C)c(-c3ccc(C(=O)O)cc3)c2)o1 [GW608005]", "%Inh, %": 0}

Req: Request: %Inh, test system DMPK, entry Cc1cccc(-c2nc(Nc3ccc4c(cnn4C)c3)c3ccccc3n2)n1 [GW876731]
Resp: 8

Req: Now the same for COc1ccc(CNC(=O)NC2CCN(c3ccnc(Nc4ccc(F)cc4)n3)C2)cc1 (stereo not drawn) [GSK1379706]
Resp: 0

Req: Now the same for CN1C(=O)C(Nc2ccccc2)=C(c2ccccc2)C1=O [SB-300079]
Resp: 0

Req: Now the same for COC(=O)c1c(-c2ccccc2)c2cc(C)ccc2c(=O)n1Cc1ccccc1
Resp: 0

Req: Now the same for Cc1ccc(-c2ccc3c(ccc4sc5c(c43)NC[C@@H](C)N=C5N(C)C)n2)cn1
Resp: 0

Req: Now the same for COc1cccc(C2=C(Nc3cccc(C(=O)O)c3)C(=O)NC2=O)c1 [SB-390770]
Resp: 0

Req: Now the same for CCC(=O)c1c(-c2ccccc2)c2cc(Cl)ccc2c(=O)n1Cc1cc(S(C)(=O)=O)n(CCC(C)(C)O)n1
Resp: 11

----------
PIK3CB: recorded pKd for assorted compounds;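 further: kd values determined as follow-up on hits from a single-replicate KINOMEscan panel screen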
Conceptually, pKd converts a concentration in mol/L into minus its log10.

Recorded results for 2 compounds are shown here.
{"compound.string": "Cc1nn2c(=O)cc(N3CCOCC3)nc2n1Cc1cccc(Cl)c1Cl", "recorded.result": 9.10}
{"compound.string": "COc1ccc(-c2cc3c(C)nc(N)nc3n([C@H]3CC[C@H](OCCO)CC3)c2=O)cn1", "recorded.result": 8.77}

// moving on: another record for pKd
Req: // query pKd value for entry COc1ccc(-c2cc3c(C)nc(N)nc3n([C@H]3CC[C@H](O)CC3)c2=O)cn1
Resp: 8.77

----------
System: AKT2
Settings: concentration: 1 μM, replicates: in singlicate; n = 1
Listed below: %Inh values for each entry.
Give the number; % is assumed, so skip it.

Recorded results for 5 molecules are shown here.
{"molecule": "O=c1cc(N2CCOCC2)nc2n(Cc3ccc(F)c(Cl)c3)ccn12", "assayed.target": "AKT2", "%Inh [%]": 13}
{"molecule": "COc1cccc(C2=C(Nc3cccc(C(=O)O)c3)C(=O)NC2=O)c1", "assayed.target": "AKT2", "%Inh [%]": 0}
{"molecule": "O=C(NCc1cccs1)c1cc(C(=O)c2c(Cl)cccc2Cl)c[nH]1", "assayed.target": "AKT2", "%Inh [%]": 0}
{"molecule": "COc1ccc(Nc2nccc(N3CCC(NS(=O)(=O)c4ccc(NC(C)=O)cc4)C3)n2)cc1 (stereo not drawn)", "assayed.target": "AKT2", "%Inh [%]": 7}
{"molecule": "COC(=O)c1c(-c2ccccc2)c2cc(Br)ccc2c(=O)n1Cc1ccc(S(C)(=O)=O)cc1", "assayed.target": "AKT2", "%Inh [%]": 28}

Req: // query %Inh value for entry CCc1ccc(-c2ccc3c(c2)-c2nn(C)cc2S(=O)(=O)N3C)cc1
Resp: 3

Req: Now the same for Cl.NS(=O)(=O)c1cccc(Nc2cc(-c3ccc(F)cc3)n[nH]2)c1
Resp: 0

Req: Now the same for O=C(Nc1n[nH]c2nc(-c3ccccc3)c(Br)cc12)C1CC1
Resp: 4

Req: Now the same for CCC(=O)c1c(-c2ccccc2)c2cc(Cl)ccc2c(=O)n1Cc1cc(C(=O)NC2CC2)n(C)n1
Resp: 7

Req: Now the same for COc1cc(Nc2nccc(N3CCC(NC(=O)C(C)c4ccc(Cl)cc4)C3)n2)cc(OC)c1OC (stereo not drawn)
Resp: 0

Req: Now the same for COc1ccc(-c2cc3c(C)nc(N)nc3n([C@H]3CC[C@H](OCCO)CC3)c2=O)cn1
Resp: 0

Req: Now the same for Cc1ccc(Oc2ccc(Nc3ncnc4cc[nH]c34)cc2C)cn1
Resp: 0

----------
Tested on: MYLK2
Conditions: concentration: 1 μM, replicates: in singlicate; n = 1
Please use fulfilled whenever %Inh is not below 6%, and not fulfilled whenever it is.

Below, 5 compounds whose answers are already recorded.
{"compound.string": "O=C(Nc1n[nH]c2nc(-c3ccccc3)c(Br)cc12)C1CC1", "discrete.label": "fulfilled"}
{"compound.string": "COc1cc2ncn(-c3cc(OCc4ccncc4Br)c(C(N)=O)s3)c2cc1OC", "discrete.label": "not fulfilled"}
{"compound.string": "Cc1cccc(-c2nc(Nc3ccc4c(cnn4C)c3)c3ccccc3n2)n1", "discrete.label": "not fulfilled"}
{"compound.string": "O=c1cc(N2CCOCC2)nc2n(Cc3ccc(F)c(Cl)c3)ccn12", "discrete.label": "not fulfilled"}
{"compound.string": "Cc1nc(N(C)[C@H]2CN(C(=O)CC#N)CC[C@H]2C)c2cc[nH]c2n1", "discrete.label": "not fulfilled"}

Req: # check: %Inh of Cl.NS(=O)(=O)c1cccc(Nc2cc(-c3ccc(F)cc3)n[nH]2)c1 is greater than or equal to 6%
Resp: fulfilled

Req: Now the same for O=C(Nc1n[nH]c2nc(-c3ccccc3)c(Cl)cc12)C1CC1
Resp: fulfilled

Req: Now the same for OCCCNc1nccc(-c2c(-c3cccc(C(F)(F)F)c3)nn3cc(C(F)(F)F)ccc23)n1
Resp: not fulfilled
